attribute-measured: melting point

INSERT INTO measurements (molecule, result) VALUES
  ('O=c1c(N2CCCNCC2)nc2ccccc2n1-c1cccc(F)c1', '128 to 129 °C'),
  ('N#CCOc1cccc2c1SCCC2', '66 °C'),
  ('CCOc1ncc(C(C)=O)cc1C(=O)O', '117 to 118 °C'),
  ('CCNC(=O)c1cc(C(=O)O)cc(C(=O)NCC)n1', '278 to 280 °C'),
  ('CC12CCC3C(CC=C4CC(O)CCC43C)C1CC(Br)C2=O (configuration not stated)', '167 to 168 °C'),
  ('N#CC(=Cc1ccc(CBr)cc1)c1ccccc1', '61 °C'),
  ('COc1ccc(-c2cc(-c3c(-c4cccc(C)n4)nc4ccccn34)ccn2)cc1', '174 °C'),
  ('CC(=O)N1N=C(c2ccc(N)c(C)c2)c2cc3c(cc2C[C@H]1C)OCO3', '123 to 130 °C'),
  ('Fc1ccc(C#Cc2ccc(F)cc2)cc1', '95 to 96 °C'),
  ('COc1cc2c(cc1O)CCN(C(=O)c1ccc(C#N)cc1)C2=O', '198 to 199 °C'),
  ('O=C1c2ccccc2C(=O)N1CCCCCCc1cnc2ccccc2c1', '90 to 91 °C'),
  ('CC(=O)c1cccc(N2C(=O)CCSC2=S)c1', '197 to 199 °C'),
  ('CCn1nc(C(F)(F)F)c(CS(=O)(=O)C2=NOC(C)(CCl)C2)c1F (configuration not stated)', '73 to 75 °C'),
  ('CN1CCC(c2c[nH]c3ccc(NC(=O)c4ccsc4)nc23)CC1', '123 to 127 °C'),
  ('CCOC(=O)N1CCC(=C2c3cc(C)ccc3CCn3ccnc32)CC1', '156 °C'),
  ('CCCCCCCCSc1nc2ccccc2[nH]1', '110 to 113 °C'),
  ('Cc1cn2c(=O)c(C(=O)O)cnc2c2cc([N+](=O)[O-])ccc12', '301 to 303 °C'),
  ('Cc1nnc(-c2ccc3occ(-c4ccc(C(C)O)cc4)c3c2)o1 (configuration not stated)', '148 to 149 °C'),
  ('COc1ccc(NC(=O)c2nc3c(s2)C(=O)C=C(NCCCN(C)CCCNC2=CC(=O)c4sc(C)nc4C2=O)C3=O)cc1', '141 to 142 °C'),
  ('CC(C(=O)n1c(=O)oc2ccccc21)C(O)C(C)(C)C (configuration not stated)', '90 to 92 °C'),
  ('COC(=O)c1cc(-c2cccc(Cl)c2)sc1N', '85 to 87 °C'),
  ('COC(=O)[C@@H]1[C@@H](O[Si](C)(C)C(C)(C)C)CCN1C(=O)Nc1ccc(C#N)c(Cl)c1C', '123 to 125 °C'),
  ('CC/C=C\C/C=C\C/C=C\CCCCCCCC(=O)Nc1c(OC)cc(OC)cc1OC', '86 to 88 °C'),
  ('Cn1cnc2c(Nc3ccc(Cl)cc3)nc(-c3ccccn3)nc21', '185 to 190 °C'),
  ('CCOc1cccc(N2C(=O)C(=CN(C)C)c3ccccc32)c1', '99 to 102 °C'),
  ('CN1CCN(c2cc(Cl)cc3c2c(=O)n(Cc2ccc([N+](=O)[O-])cc2)c(=O)n3Cc2ccccc2)CC1', '109 to 113 °C'),
  ('S=C1CCNc2ccccc2N1', '154 to 157 °C'),
  ('Cc1ccc(CNC(=O)C2=C(C(=O)Nc3cc(OC4CCCC4)c(Cl)cc3F)CCCC2)cc1', '168 to 169 °C'),
  ('Fc1cccc(C(F)(F)F)c1N(CC1CC1)C1=NCCN1', '126 to 127 °C'),
  ('CN(C)S(=O)(=O)c1cccc(Cl)c1S(N)(=O)=O', '171 to 182 °C'),
  ('Oc1ccc(-c2cnccn2)cc1', '216 to 217 °C'),
  ('NN1CCN(Cc2c[nH]c3ccccc23)CC1', '147 to 149 °C'),
  ('CCCOCc1nc(C(C)(C)O)c(C(=O)O)n1Cc1ccc(-c2ccccc2C(=O)O)cc1', '109 to 111 °C'),
  ('Cc1cc(C#N)cc(C(=O)c2c(C(C)C)c(=O)[nH]c(=O)n2Cc2cc(F)cc(NC(=O)C(F)(F)F)c2)c1', '263 to 264 °C'),
  ('COC(=O)c1cc(OCCCCCCCCCCCCOc2ccccc2)ccc1OCc1ccccc1', '46 to 48 °C'),
  ('O=C(Nc1ccc(Br)cc1)OC1CN2CCC1CC2 (configuration not stated)', '218 to 220 °C'),
  ('Clc1nc2cccc3c2n1CCC3', '78 °C'),
  ('COc1cc(C(C)=O)c(OC)cc1Cl', '96 °C'),
  ('COC(=O)c1cc(C#N)ccc1NC(=O)c1cccc(S(=O)(=O)N2CCOCC2)c1', '184 to 185 °C'),
  ('OC(CCCCCCCCOCc1ccccc1)c1ccc(OCc2ccccc2)c(OCc2ccccc2)c1 (configuration not stated)', '46 to 48 °C'),
  ('O=P(O)(CCCNCc1cc(Cl)cc(Cl)c1)CC1CCCCC1', '231 to 233 °C'),
  ('CC(=O)C1CCC2C3CCC4CC(O)(C#Cc5ccccn5)CCC4(C)C3CCC12C (configuration not stated)', '192 to 195 °C');

---

attribute-measured: melting point (°C)

INSERT INTO assay_data (record_smiles, numeric_result) VALUES
  ('CC(C)(C)OC(=O)n1ccc2c3[nH]c(CO)nc3ccc21', 152),
  ('CCC(=O)Nc1ccc(C(=O)NCCN(CC)CC)c(OC)c1', 137);

---

Readings of melting point for the listed compounds
attribute-measured: melting point

INSERT INTO assay_data (compound, result) VALUES
  ('CCOC(=O)C(C(=O)CCCCC(C)C)C1c2ccccc2C(=O)N1c1ccc2ccc(Cl)nc2n1 (stereo unspecified)', '136 °C'),
  ('S=C1NCC(Cn2cncn2)(c2ccc(Cl)cc2Cl)O1 (stereo unspecified)', '232 to 235 °C'),
  ('CCNC(=O)Nc1ccc(CC(CO)NCC(O)COc2ccccc2)cc1 (stereo unspecified)', '129 to 130 °C'),
  ('Clc1ccc2c(-n3cc(Cl)cn3)ccnc2c1', '110 to 114 °C'),
  ('C=C(F)C(=O)Oc1ccc(C#N)cc1', '78 to 79 °C'),
  ('O=C(O)c1ccc(OCCOc2ccccc2)cc1O', '114 to 116 °C'),
  ('C=Cc1ccc(OS(C)(=O)=O)cc1', '57 to 58 °C'),
  ('CC1(C)CCC2=C1CCC1C3CC(C#N)C(=O)C=C3CCC21 (stereo unspecified)', '163 to 165 °C'),
  ('COC(=O)c1ccc(CC(C)NCC(O)c2ccc(Cl)cc2)cc1 (stereo unspecified)', '134 to 135 °C'),
  ('CCC(=O)OCC12CCC(=O)C=C1CCC1C2CCC2(C)C(OC(=O)CC)CCC12 (stereo unspecified)', '82 to 84 °C'),
  ('O=Cc1cn(-c2ccccc2)nc1-c1ccc([N+](=O)[O-])o1', '208 to 209 °C');

---

Readings of melting point for the listed compounds
attribute-measured: melting point

INSERT INTO measurements (compound, result) VALUES
  ('CCCCCN(C(=O)Cl)c1ccc2c(c1)C(C)(C)CCC2(C)C', '79 to 81 °C'),
  ('CCc1onc(-c2ccccc2)c1C(=O)NCCCN1CCN(c2ccccc2OCC(F)(F)F)CC1', '102 to 104 °C'),
  ('CC1(C)CON(Cc2ccc(Nc3cc4ccccc4c(=O)o3)cc2)C1=O', '175 to 177 °C'),
  ('CC(=O)N1CCN(Cc2ccc(CCn3cnc4cc(-c5ccc(Cl)cc5)sc4c3=O)cc2)C(=O)C1', '204 to 207 °C'),
  ('NNc1cc(OCC2CCCSC2)c(Cl)cc1F (stereo unspecified)', '83 to 87 °C'),
  ('CCOC(=O)CNC(=O)CCc1cc(Cl)ccc1C(=O)CCCNC(C)=O', '96 °C'),
  ('CCCCCNCc1ccc(-c2ccccc2S(=O)(=O)NC(C)(C)C)cc1', '69 to 70 °C'),
  ('Brc1ccc2c(c1)COCc1cc(Br)ccc1-2', '129 to 131 °C'),
  ('Cc1nc2cc(Cl)ccc2c(=O)n1C', '162 to 165 °C'),
  ('COC(=O)c1cc(C(C)(C)C)cc(C(C)(C)C)c1', '52 to 52.5 °C'),
  ('CCc1nn2c(N3CCN(C)CC3)cc(OCCO)nc2c1S(=O)(=O)c1ccccc1', '153 to 154 °C'),
  ('CCn1c2c(c3ccccc31)S(=O)(=O)N(C)C(C(=O)Nc1ccccc1)=C2O', '268 °C'),
  ('COC(=O)c1nc(-c2ccc(Cl)c(OC)c2F)cc(NC(C)=O)c1OCc1ccccc1', '115 to 120 °C'),
  ('N#CCCNC(=O)C1=CC(CF)(CF)Oc2ccc(C(F)(F)C(F)(F)C(F)(F)C(F)(F)F)cc21', '85 to 86 °C'),
  ('O=C(Nc1c(F)cccc1F)c1ccc(-n2nc(C(F)(F)F)cc2C2CC2)c(F)c1', '168 to 170 °C'),
  ('CCOC(=O)C(=NOC)c1nnc(C)s1', '79 to 81 °C'),
  ('CC1(C)OCC(C(O)CN)O1 (stereo unspecified)', '94 to 96 °C'),
  ('CC(Oc1cc(Oc2ccc(C(F)(F)F)cc2Cl)ccc1C#N)C(N)=O (stereo unspecified)', '134 to 137 °C'),
  ('CN(C)C1(C(=O)c2cc3ccccc3n2C)CCC(c2ccccc2)(N(C)C)CC1 (stereo unspecified)', '109 to 111 °C'),
  ('Nc1c(-c2ccc(Cl)cc2)sc2ccccc12', '152 to 154 °C'),
  ('CCOCCOc1ccc2c(c1)C(CNS(=O)(=O)CC)CC(C)(C)O2 (stereo unspecified)', '70 to 72 °C');

Numbers sourced from a melting point compilation (Tetko et al.; mined from patent text by program, amines drawn as free bases though some values may be those of a salt).
